- Run description: chemical genetic growth profiling, strain panel (AID 1159580);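 note: tested at 20 µM; growth read once vehicle control cultures reached saturation at 30 °C; 1 = growth at the plate median or of vehicle wells; lower values mean less growth of the strain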
- Assay context: S. cerevisiae deletion strains, growth OD, locus YJL115W, strain asf1, stronger effect = lower value
Among all 5,500 compounds or so, about 2,000 (36%) were called active. Inconclusive results (about 18%) are left out. The list shows a part of the results.
Property label: normalized growth

Some solved cases for reference:
1. CCCc1nc(C)c2c(=O)[nH]c(-c3cc(S(=O)(=O)N4CCN(CC)CC4)ccc3OCC)nn12 :: 0.943 (inactive)
2. O=C(O)C1=CC(=C(c2ccc(O)c(C(=O)O)c2)c2ccc(O)c(C(=O)O)c2)C=CC1=O :: 0.999 (inactive)

// next entry
# input Look up normalized growth: Oc1ccc([C@H]2Oc3cc(O)cc(O)c3C[C@H]2O)cc1
# output 0.976 (inactive)

====

- Run description: chemical genetic growth profiling, strain panel (AID 1159580);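 note: tested at 20 µM; growth read once vehicle control cultures reached saturation at 30 °C; 1 = growth at the plate median or of vehicle wells; lower values mean less growth of the strain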
- Assay context: S. cerevisiae deletion strains, growth OD, locus YBR009C, strain hhf1, stronger effect = lower value
Screen size: about 5,500 compounds; about 2,000 (36%) were called active. Not shown: some 18% with an inconclusive outcome. This is one part of the list.
Property label: normalized growth

Below, 7 compounds whose answers are already recorded.
1) C[C@]12CCC3C(CC[C@]4(O)C[C@@H](O)CC[C@]34C=O)[C@@]1(O)CCC2C1=CC(=O)OC1 (stereo partly drawn) :: 0.967 (inactive)
2) C[C@@H]1O[C@@H](O[C@H]2CC[C@]3(C=O)C4CC[C@]5(C)[C@@H](C6=CC(=O)OC6)CC[C@]5(O)C4CC[C@]3(O)C2)[C@H](O)[C@H](O)[C@H]1O (stereo partly drawn) :: 0.979 (inactive)
3) CCn1nc(C(=O)O)c(=O)c2cc3c(cc21)OCO3 :: 0.989 (inactive)
4) NC[C@H]1O[C@H](O[C@H]2[C@H](O)[C@@H](O[C@H]3O[C@H](CO)[C@@H](O)[C@H](N)[C@H]3O)[C@H](N)C[C@@H]2N)[C@H](N)[C@@H](O)[C@@H]1O :: 1.03 (inactive)
5) C[C@@H]1CC[C@@]23CCC4(C)[C@@](C=CC5[C@@]6(C)CC[C@H](O)C(C)(C)C6CC[C@]54C)(OC2=O)C3[C@H]1C (stereo partly drawn) :: 1 (inactive)
6) CC(=O)OC1CC[C@@]2(C)C(CCC3C2CC[C@]2(C)C(C4=CC(=O)OC4)C(OC(C)=O)CC32O)C1 (stereo partly drawn) :: 1 (inactive)
7) O=S(=O)(O)O :: 0.991 (inactive)

Read the next record carefully.
# input Which normalized growth reading was recorded for the compound COC(=O)C(N)CS (stereo not drawn) ?
# output 0.958 (inactive)

====

- Run description: chemical genetic growth profiling, strain panel (AID 1159580);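 note: tested at 20 µM; growth read once vehicle control cultures reached saturation at 30 °C; 1 = growth at the plate median or of vehicle wells; lower values mean less growth of the strain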
- Assay context: S. cerevisiae deletion strains, growth OD, locus YLR384C, strain iki3, stronger effect = lower value
Out of some 5,500 compounds screened, about 2,000 (36%) were called active. Not shown: some 18% with an inconclusive outcome. Some of the results follow.
Overview of reported normalized growth across a group of compounds:
Could you keep your reply to the number by itself?

Recorded results for 9 compounds are shown here.
1. COC(=O)C[C@H]1C(C)(C)[C@@H](O)[C@@H]2CC3=C4CC(O)O[C@@H](c5ccoc5)[C@]4(C)CCC3[C@@]1(C)C2=O (stereo not given in full) :: 0.999
2. C=CCSC[C@@H](N)C(=O)O :: 0.993
3. C=CCSCC=C :: 0.99
4. O=C(Oc1ccccc1C(=O)O)c1ccccc1O :: 0.967
5. CC(C)c1cccc(C(C)C)c1O :: 0.971
6. COC1=CC(=O)C=C(OC)C1=O :: 0.986
7. CN[C@H]1CC[C@@H](c2ccc(Cl)c(Cl)c2)c2ccccc21 :: 1.02
8. CC(=O)O[C@@H]1c2c(ccc3ccc(=O)oc23)OC(C)(C)[C@@H]1OC(=O)CC(C)C :: 1.01
9. C=CCSSCC=C :: 1.03

# input Sample COc1ccc(-c2cc(=O)c3c(O)c(OC)c(O[C@H]4O[C@H](CO[C@@H]5O[C@@H](C)[C@H](O)[C@@H](O)[C@H]5O)[C@@H](O)[C@H](O)[C@H]4O)cc3o2)cc1 — what was its normalized growth?
# output 0.978

These data points were gathered from PubChem BioAssay AID1159580.
